- Tgt: GSPT1 (Homo sapiens, UniProt P15170+Q96SW2)
- Sequence (P15170 whole entry): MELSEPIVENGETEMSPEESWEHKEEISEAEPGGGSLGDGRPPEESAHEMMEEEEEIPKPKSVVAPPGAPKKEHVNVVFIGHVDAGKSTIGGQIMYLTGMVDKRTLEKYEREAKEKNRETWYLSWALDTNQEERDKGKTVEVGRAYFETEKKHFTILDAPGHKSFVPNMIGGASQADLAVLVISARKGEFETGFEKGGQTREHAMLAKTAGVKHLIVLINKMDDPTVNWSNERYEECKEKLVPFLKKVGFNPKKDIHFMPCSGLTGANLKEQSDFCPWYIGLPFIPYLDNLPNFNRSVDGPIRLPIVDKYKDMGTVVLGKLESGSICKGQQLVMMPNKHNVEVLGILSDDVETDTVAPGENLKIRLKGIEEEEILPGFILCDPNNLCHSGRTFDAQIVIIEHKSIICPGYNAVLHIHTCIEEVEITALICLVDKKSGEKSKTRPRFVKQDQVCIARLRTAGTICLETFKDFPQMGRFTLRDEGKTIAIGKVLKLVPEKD
- Sequence (Q96SW2 whole entry): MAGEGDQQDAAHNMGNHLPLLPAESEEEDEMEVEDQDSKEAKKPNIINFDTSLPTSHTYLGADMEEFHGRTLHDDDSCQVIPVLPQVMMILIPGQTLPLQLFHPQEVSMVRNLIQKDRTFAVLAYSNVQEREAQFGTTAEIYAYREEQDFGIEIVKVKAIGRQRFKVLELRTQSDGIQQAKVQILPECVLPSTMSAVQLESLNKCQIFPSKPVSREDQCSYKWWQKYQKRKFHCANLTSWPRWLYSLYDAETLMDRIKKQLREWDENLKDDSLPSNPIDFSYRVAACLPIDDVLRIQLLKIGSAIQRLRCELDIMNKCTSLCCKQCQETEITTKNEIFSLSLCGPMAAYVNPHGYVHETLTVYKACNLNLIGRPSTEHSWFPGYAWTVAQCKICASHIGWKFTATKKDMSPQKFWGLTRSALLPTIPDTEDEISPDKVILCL
- Sequence (Q16531 whole entry partner): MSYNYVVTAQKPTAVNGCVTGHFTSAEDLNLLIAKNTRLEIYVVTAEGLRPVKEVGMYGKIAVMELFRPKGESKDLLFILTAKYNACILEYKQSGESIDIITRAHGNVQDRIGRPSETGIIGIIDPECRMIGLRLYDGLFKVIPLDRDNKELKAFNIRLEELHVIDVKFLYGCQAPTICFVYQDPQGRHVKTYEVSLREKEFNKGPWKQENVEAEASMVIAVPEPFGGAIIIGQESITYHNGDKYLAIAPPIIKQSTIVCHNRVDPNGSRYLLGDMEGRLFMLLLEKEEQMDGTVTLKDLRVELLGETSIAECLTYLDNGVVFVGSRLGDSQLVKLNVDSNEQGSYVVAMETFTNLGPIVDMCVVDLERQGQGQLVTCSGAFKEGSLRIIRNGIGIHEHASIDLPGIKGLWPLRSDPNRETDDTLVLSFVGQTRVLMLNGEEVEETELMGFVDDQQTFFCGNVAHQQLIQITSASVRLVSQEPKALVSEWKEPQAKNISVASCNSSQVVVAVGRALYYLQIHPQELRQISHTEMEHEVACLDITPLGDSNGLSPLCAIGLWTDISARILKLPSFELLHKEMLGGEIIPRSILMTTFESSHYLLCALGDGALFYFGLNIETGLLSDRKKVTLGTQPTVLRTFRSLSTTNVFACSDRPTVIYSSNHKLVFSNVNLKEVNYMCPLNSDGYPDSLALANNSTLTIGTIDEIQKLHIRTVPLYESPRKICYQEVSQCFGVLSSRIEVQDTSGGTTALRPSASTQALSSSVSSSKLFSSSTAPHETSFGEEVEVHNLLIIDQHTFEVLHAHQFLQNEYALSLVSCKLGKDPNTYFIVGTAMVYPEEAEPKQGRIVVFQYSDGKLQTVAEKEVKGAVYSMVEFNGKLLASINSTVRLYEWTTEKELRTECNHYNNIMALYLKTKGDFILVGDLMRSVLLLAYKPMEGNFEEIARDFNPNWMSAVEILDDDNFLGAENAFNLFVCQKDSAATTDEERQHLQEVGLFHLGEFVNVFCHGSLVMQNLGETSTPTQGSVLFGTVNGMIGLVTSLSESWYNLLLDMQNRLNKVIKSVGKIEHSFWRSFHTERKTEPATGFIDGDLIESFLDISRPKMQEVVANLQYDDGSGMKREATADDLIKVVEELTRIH
- Protocol Text: GSPT1 Cellular Degradation Assay (DF15-GSPT1-ePL)
- Format: cell-based
- Design: expressed in transfected cells
- Condition Info: DF15-GSPT1-ePL cells, 20 hours
Reported Dmax values follow for various compounds
I'd appreciate it if you included the unit after the number.

Past entries and their recorded results:
[[record]]
compound = "CCN(C)C(=O)COc1c(COC(=O)Nc2ccc(Oc3ccc(F)c(F)c3)cc2)ccc2c1C(=O)N(C1CCC(=O)NC1=O)C2 (centres unmarked)"
measured = "0%"

[[record]]
compound = "COc1cccc(Oc2ccc(NC(=O)OCc3ccc4c(c3OC)C(=O)N(C3CCC(=O)NC3=O)C4)cc2)c1 (centres unmarked)"
measured = "24%"

[[record]]
compound = "O=C1CCC(N2Cc3ccc(COC(=O)Nc4ccc(Oc5ccc(F)cc5)cc4)c(OC4CCOCC4)c3C2=O)C(=O)N1 (centres unmarked)"
measured = "16%"

[[record]]
compound = "COCCOc1c(COC(=O)Nc2ccc(Oc3ccc(F)c(F)c3)cc2)ccc2c1C(=O)N(C1CCC(=O)NC1=O)C2 (centres unmarked)"
measured = "33%"

[[record]]
compound = "COc1c(COC(=O)Nc2ccc(Oc3cccc(Cl)c3)cc2)ccc2c1C(=O)N(C1CCC(=O)NC1=O)C2 (centres unmarked)"
measured = "34%"

[[record]]
compound = "O=C1CCC(N2Cc3ccc(COC(=O)Nc4ccc(Oc5ccc(F)c(F)c5)cc4)c(OC4CCC4)c3C2=O)C(=O)N1 (centres unmarked)"
measured = "9%"

[[record]]
compound = "O=C1CCC(N2Cc3ccc(COC(=O)Nc4ccc(Oc5ccccc5)cc4)c(OC4CCOCC4)c3C2=O)C(=O)N1 (centres unmarked)"
measured = "0%"

[[record]]
compound = "COc1c(COC(=O)Nc2ccc(Oc3cc(F)c(F)cc3F)cc2)ccc2c1C(=O)N(C1CCC(=O)NC1=O)C2 (centres unmarked)"
measured = "42%"

[[record]]
compound = "COc1c(COC(=O)Nc2ccc(Oc3ccc(F)c(C)c3)cc2)ccc2c1C(=O)N(C1CCC(=O)NC1=O)C2 (centres unmarked)"
measured = "27%"

[[record]]
compound = "COc1ccccc1Oc1ccc(NC(=O)OCc2ccc3c(c2OC)C(=O)N(C2CCC(=O)NC2=O)C3)cc1 (centres unmarked)"
measured = "64%"


Problem: // lookup Dmax for O=C1CCC(N2Cc3ccc(COC(=O)Nc4ccc(Oc5cccc(F)c5)cc4)c(Oc4ccccc4)c3C2=O)C(=O)N1 (centres unmarked)
Solution: 22%

Problem: // lookup Dmax for O=C1CCC(N2Cc3ccc(COC(=O)Nc4ccc(Oc5ccc(F)c(F)c5)cc4F)c(OC4CCOCC4)c3C2=O)C(=O)N1 (centres unmarked)
Solution: 10%

Problem: // lookup Dmax for O=C1CCC(N2Cc3ccc(COC(=O)Nc4ccc(Oc5cc(F)c(F)c(F)c5)cc4F)c(O[C@@H]4CCCOC4)c3C2=O)C(=O)N1 (some centres unmarked)
Solution: 0%

Problem: // lookup Dmax for CC(C)(O)COc1c(COC(=O)Nc2ccc(Oc3cc(F)cc(F)c3)cc2F)ccc2c1C(=O)N(C1CCC(=O)NC1=O)C2 (centres unmarked)
Solution: 2%

----------
Reported log10(DC50) values follow for various compounds
- Tgt: Cyclin E1 (Homo sapiens, UniProt P24864+Q96SW2)
- Sequence (P24864 whole entry, one chain of several): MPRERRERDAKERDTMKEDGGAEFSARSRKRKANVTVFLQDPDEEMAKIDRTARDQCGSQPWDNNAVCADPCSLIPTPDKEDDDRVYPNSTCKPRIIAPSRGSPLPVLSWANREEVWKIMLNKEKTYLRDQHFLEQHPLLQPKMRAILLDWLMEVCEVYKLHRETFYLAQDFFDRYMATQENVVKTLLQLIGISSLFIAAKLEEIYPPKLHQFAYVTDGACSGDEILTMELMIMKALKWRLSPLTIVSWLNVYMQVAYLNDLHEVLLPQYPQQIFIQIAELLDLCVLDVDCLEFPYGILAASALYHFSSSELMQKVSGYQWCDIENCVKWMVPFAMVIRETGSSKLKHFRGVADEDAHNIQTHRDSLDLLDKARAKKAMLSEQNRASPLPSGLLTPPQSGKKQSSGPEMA
- Protocol Text: Cyclin E1 Cellular Degradation Assay (MSD)
- Assay type: cell-based
- Design: endogenous in cells; host or cells: OVCAR3
- Condition Info: Cyclin E1 cellular degradation
Note the log scale: values are log10 of DC50 expressed in nM.

Past entries and their recorded results:
[[record]]
compound = "COc1c(COC(=O)Nc2ccc(Oc3ccc(F)c(F)c3)cc2C)ccc2c1C(=O)N(C1CCC(=O)NC1=O)C2 (centres unmarked)"
measured = 1.96

[[record]]
compound = "O=C1CCC(N2Cc3ccc(COC(=O)Nc4ccc(Oc5ccccc5)cc4)c(OC(F)F)c3C2=O)C(=O)N1 (centres unmarked)"
measured = 2.26

[[record]]
compound = "O=C1CCC(N2Cc3ccc(COC(=O)Nc4ccc(Oc5ccc(F)cc5F)cc4F)c(OC4CCOCC4)c3C2=O)C(=O)N1 (centres unmarked)"
measured = 1.58


Problem: // lookup log10(DC50) for COc1c(COC(=O)Nc2ccc(Oc3ccc(F)cc3C(F)F)cc2)ccc2c1C(=O)N(C1CCC(=O)NC1=O)C2 (centres unmarked)
Solution: 2.46

Problem: // lookup log10(DC50) for O=C1CCC(N2Cc3ccc(COC(=O)Nc4ccc(Oc5ccc(F)c(F)c5)cc4)c(O[C@H]4CC[C@@H](O)CC4)c3C2=O)C(=O)N1 (some centres unmarked)
Solution: 1.11

Problem: // lookup log10(DC50) for O=C1CCC(N2Cc3ccc(COC(=O)Nc4ccc(Oc5ccc(F)cc5F)cc4)c(OC4CCOCC4)c3C2=O)C(=O)N1 (centres unmarked)
Solution: 1.83

----------
- Tgt: Cyclin E1 (Homo sapiens, UniProt P24864+Q96SW2)
- Protocol Text: Cyclin E1 Cellular Degradation Assay (MSD)
- Assay type: cell-based
- Design: endogenous in cells; host or cells: OVCAR3
- Condition Info: Cyclin E1 cellular degradation
- Procedure: Culturing cells: On Day 0, OVCAR3 cells were plated at 15,000 cells/well in 40 μL of culture medium (RPMI1640, 20% FBS, 0.01 insulin, 1% Anti/Anti) in a 384 well cell culture plate. Cell cultures were incubated for 24 hours at 37° C. and 5% CO2. […] Collecting data: After thawing, 25 μL of lysate was transferred to a coated MSD plate. […] After the final wash, 35 μL of 1× Read Buffer (MSD R92TC-1) was added to each well and the data was captured using the MSD plate reader. […]
Strictly below 90 nM in DC50: met. Otherwise: not met.

[[record]]
molecule = "O=C1CCC(N2Cc3ccc(COC(=O)Nc4ccc(Oc5ccc(F)c(F)c5)cc4)c(OC4CCOCC4)c3C2=O)C(=O)N1 (centres unmarked)"
assigned_class = "met"

[[record]]
molecule = "CC(C)Oc1c(COC(=O)Nc2ccc(Oc3ccccc3Cl)cc2)ccc2c1C(=O)N(C1CCC(=O)NC1=O)C2 (centres unmarked)"
assigned_class = "met"

[[record]]
molecule = "O=C1CCC(N2Cc3ccc(COC(=O)Nc4ccc(Oc5cc(F)cc(F)c5)cc4F)c(OC4CCOCC4)c3C2=O)C(=O)N1 (centres unmarked)"
assigned_class = "met"

[[record]]
molecule = "CC(C)Oc1c(COC(=O)Nc2ccc(Oc3cccc(Cl)c3)cc2)ccc2c1C(=O)N(C1CCC(=O)NC1=O)C2 (centres unmarked)"
assigned_class = "not met"

[[record]]
molecule = "COc1c(COC(=O)Nc2ccc(Cc3cccc(F)c3)cc2F)ccc2c1C(=O)N(C1CCC(=O)NC1=O)C2 (centres unmarked)"
assigned_class = "not met"

[[record]]
molecule = "CCOc1c(COC(=O)Nc2ccc(Oc3cccc(F)c3)cc2)ccc2c1C(=O)N(C1CCC(=O)NC1=O)C2 (centres unmarked)"
assigned_class = "not met"


From here, focus on the item given below.
Problem: For the molecule O=C1CCC(N2Cc3ccc(COC(=O)Nc4ccc(Oc5cc(F)cc(F)c5)cc4F)c(O[C@@H]4CCCOC4)c3C2=O)C(=O)N1 (some centres unmarked) , is DC50 under 90 nM?
Solution: met

----------
Reported pIC50 values follow for various molecules
- Tested on: Phospho-Rb (Ser807/811)
- Protocol Text: Phospho-Retinoblastoma (pRB) Cellular Assay
- Format: cell-based
- Condition Info: Homo sapiens, OVCAR-3; NIH OVCAR3 cells, 24 hours; concentration giving 50% response
# pIC50: negative log10 of molar concentration; output just the value

[[record]]
molecule = "COc1cc(Oc2cc(F)c(F)cc2F)ccc1NC(=O)OCc1ccc2c(c1OC)C(=O)N(C1CCC(=O)NC1=O)C2 (centres unmarked)"
measured = 7.11


Problem: // lookup pIC50 for COc1c(COC(=O)Nc2ccc(Oc3cc(F)c(F)cc3F)cc2F)ccc2c1C(=O)N(C1CCC(=O)NC1=O)C2 (centres unmarked)
Solution: 6.88

Problem: // lookup pIC50 for O=C1CCC(N2Cc3ccc(COC(=O)Nc4ccc(Oc5ccc(F)c(F)c5)cc4)c(OCC(=O)N4CCOCC4)c3C2=O)C(=O)N1 (centres unmarked)
Solution: 6.88

Problem: // lookup pIC50 for O=C1CC[C@H](N2Cc3ccc(COC(=O)Nc4ccc(Oc5ccc(F)c(F)c5)cc4)c(OCCCc4ccccc4)c3C2=O)C(=O)N1
Solution: 6.89

Problem: // lookup pIC50 for CC(C)(O)COc1c(COC(=O)Nc2ccc(Oc3ccccc3)cc2)ccc2c1C(=O)N(C1CCC(=O)NC1=O)C2 (centres unmarked)
Solution: 6.88

----------
- Tested on: Phospho-Rb (Ser807/811)
- Protocol Text: Phospho-Retinoblastoma (pRB) Cellular Assay
- Format: cell-based
- Condition Info: Homo sapiens, OVCAR-3; NIH OVCAR3 cells, 24 hours; concentration giving 50% response
Recorded Endpoint: pIC50
# pIC50: negative log10 of molar concentration; output just the value

Past entries and their recorded results:
[[record]]
compound = "CCOc1c(COC(=O)Nc2ccc(Oc3cccc(F)c3)cc2)ccc2c1C(=O)N(C1CCC(=O)NC1=O)C2 (stereo not drawn)"
recorded_endpoint = "pIC50"
measured = 6.73

[[record]]
compound = "CC(C)(O)COc1c(COC(=O)Nc2ccc(Oc3cc(F)c(F)c(F)c3)cc2F)ccc2c1C(=O)N(C1CCC(=O)NC1=O)C2 (stereo not drawn)"
recorded_endpoint = "pIC50"
measured = 7.55


Problem: // lookup pIC50 for COc1c(COC(=O)Nc2ccc(Oc3ccc(F)cc3C)cc2F)ccc2c1C(=O)N(C1CCC(=O)NC1=O)C2 (stereo not drawn)
Solution: 7.20
